Property: EC50 (read off the curve); scope: individual binders
- SYSTEM: T1, human SIRPγ on stably transfected CHO cells (human, UniProt Q9P1W8 29-387)
- T1 construct: also called Human SIRPγ CHO
- T1 sequence (Q9P1W8 29-387 limits assumed): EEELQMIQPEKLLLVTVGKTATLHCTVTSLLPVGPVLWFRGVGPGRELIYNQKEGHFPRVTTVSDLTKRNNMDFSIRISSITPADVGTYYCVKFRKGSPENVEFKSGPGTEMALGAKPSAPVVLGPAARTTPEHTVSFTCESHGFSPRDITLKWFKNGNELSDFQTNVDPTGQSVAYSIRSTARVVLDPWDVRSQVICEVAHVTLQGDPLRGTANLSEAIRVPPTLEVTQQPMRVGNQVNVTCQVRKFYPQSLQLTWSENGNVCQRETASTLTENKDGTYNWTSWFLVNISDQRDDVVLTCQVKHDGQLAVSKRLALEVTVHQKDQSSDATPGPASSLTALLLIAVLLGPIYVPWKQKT
- PROTOCOL: flow cytometry, CHO transfectants, anti-human IgG

Example cases with answers are listed next.
Antibody 84 (antibody, V domains shown) VH: QVQLVQSGAEVKKPGASVKVSCKASGYTFTSYYMHWVRQAPGQGLEWMGWINPNSGNAGFAQKFQGRVTMTRDTSTSTVYMELSSLRSEDTAVYYCARGPVYSYGPFDYWGQGTLVTVSS VL: DIQMTQSPSSLSASVGDRVTITCRASQGISTYLAWYQQKPGKAPKLLIYAASTLQSGVPSRFSGSGSGTDFTLTISSLQPEDFATYYCQQSHSAPITFGQGTKVEIK; ~0.2 µg/mL
Antibody 64 (antibody, V domains shown) VH: QVQLVQSGAEVKKPGASVKVSCKASGYTFTSYYMHWVRQAPGQGLEWMGRINPNSGGTKYAQKFQGRVTMTRDTSTSTVYMELSSLRSEDTAVYYCARLGSAYFDLWGRGTLVTVSS VL: DIQMTQSPSSLSASVGDRVTITCRASQSVDTWLAWYQQKPGKAPKLLIYEASTLESGVPSRFSGSGSGTDFTLTISSLQPEDFATYYCQQANSFPITFGQGTRLEIK; ~0.1 µg/mL

Let us move to another entry and its EC50 (read off the curve).
Q: Tell me the measured EC50 (read off the curve) of Antibody 71 (antibody, V domains shown) VH: QVQLVQSGAEVKKPGASVKVSCKASGYTFTSYYIHWVRQAPGQGLEWMGTINPSGGSTSYAQKFQGRVTMTRDTSTSTVYMELSSLRSEDTAVYYCARETSRWLRDYYYGMDVWGQGTTVTVSS VL: DIVMTQSPLSLPVTPGEPASISCRSSQSLLHSNGYNYLDWYLQKPGQSPQLLIYDASSLESGVPDRFSGSGSGTDFTLKISRVEAEDVGVYYCMQGTHWPLTFGGGTKVEIK , please.
Ans: ~0.1 µg/mL
